molecular target: PDE 5 (Homo sapiens, UniProt O76074)
pIC50: −log10 of the molar value.
MEASURED_PROPERTY: pIC50

Take a look at these entries with their results.
- CCn1c(=O)c2c(nc(NC3CCOCC3)n2Cc2ccc(OC)c(Br)c2)n(CCO)c1=O [Compound 186]: ≥ 8.30
- CCn1c(=O)c2c(nc(N[C@@H]3CCCC[C@@H]3O)n2Cc2ccc(OC)c(Br)c2)n(CC)c1=O [Compound 124]: ≥ 8.30

Next up:
The recorded pIC50 with PDE 5 (Homo sapiens, UniProt O76074) for CCn1c(=O)c2c(nc(N[C@@H]3CCC[C@H]3O)n2Cc2ccc(O)c(Br)c2)n(CCO)c1=O [Compound 118] was ≥ 8.30
